Origin of measurements: ChEMBL document CHEMBL4811270

test.target: Procathepsin L (Homo sapiens, UniProt P07711)
Sequence (P07711 114-333 limits assumed): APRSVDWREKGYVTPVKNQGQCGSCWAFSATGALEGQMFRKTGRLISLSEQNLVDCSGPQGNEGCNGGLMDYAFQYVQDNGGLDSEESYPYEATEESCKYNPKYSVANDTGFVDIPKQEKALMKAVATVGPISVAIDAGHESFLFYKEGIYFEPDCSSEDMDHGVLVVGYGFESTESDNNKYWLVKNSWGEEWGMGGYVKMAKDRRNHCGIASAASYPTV
test.details: Inhibition of recombinant human liver CatL at 10 uM using Z-FR-AMC as substrate by fluorescence assay relative to control
measure: inhibition (%)
# unit: % | format: bare number

{"structure.as.smiles": "N#CC1(NC(=O)CN(Cc2ccccc2)C(=O)Cc2ccccc2)CC1", "test.target": "Procathepsin L (Homo sapiens, UniProt P07711)", "measure": "inhibition", "test.value": 87}

System Procathepsin L (Homo sapiens, UniProt P07711). Read-out inhibition. Item Cn1nc(C(C)(C)C)cc1C(=O)N(CC(=O)NCC#N)Cc1ccccc1 . Report value.
88

---

# key: entry, value: inhibition
test.target: Cathepsin B (Homo sapiens, UniProt P07858)
test.details: Inhibition of recombinant human liver CatB at 10 uM using Z-FR-AMC as substrate by fluorescence assay relative to control
# unit: % | format: bare number

Below: 4 compounds and their reported inhibition.
{"structure.as.smiles": "N#CCNC(=O)CN(Cc1ccccc1)C(=O)c1ccc(-c2ccccc2)cc1", "test.value": 66}
{"structure.as.smiles": "COc1ccc(-c2ccc(C(=O)N(CC(=O)NCC#N)Cc3ccccc3)cc2)cc1", "test.value": 83}
{"structure.as.smiles": "Cn1nc(C(C)(C)C)cc1C(=O)N(CC(=O)N[C@H](C#N)Cc1ccccc1)Cc1ccccc1", "test.value": 80}
{"structure.as.smiles": "Cn1nc(C(C)(C)C)cc1C(=O)N(CC(=O)NCC#N)Cc1ccccc1", "test.value": 93}

Now examine the next entry.
Read off the recorded inhibition for N#CC1(NC(=O)CN(Cc2ccccc2)C(=O)c2ccccc2)CC1
91

---

test.target: Procathepsin L (Homo sapiens)
test.details: Inhibition of recombinant human liver CatL at 10 uM using Z-FR-AMC as substrate by fluorescence assay relative to control
measure: inhibition (%)
# unit: % | format: bare number

Below: 2 molecules and their reported inhibition.
{"structure.as.smiles": "COc1ccc(-c2ccc(C(=O)N(CC(=O)NC3(C#N)CC3)Cc3ccccc3)cc2)cc1", "test.value": 68}
{"structure.as.smiles": "N#CC1(NC(=O)CN(Cc2ccccc2)C(=O)c2ccccc2)CC1", "test.value": 82}

Now examine the next entry.
Read off the recorded inhibition for Cn1nc(C(C)(C)C)cc1C(=O)N(CC(=O)NC1(C#N)CC1)Cc1ccccc1
85

---

test.target: Cruzipain (Trypanosoma cruzi)
test.details: Inhibition of Trypanosoma cruzi cruzain at 10 uM using Z-FR-AMC as substrate by fluorescence assay relative to control
measure: inhibition (%)
# unit: % | format: bare number

Below: 2 compounds and their reported inhibition.
{"structure.as.smiles": "N#CCNC(=O)CN(Cc1ccccc1)C(=O)c1cccc(I)c1", "inhibition (%)": 34}
{"structure.as.smiles": "N#CCNC(=O)CN(Cc1ccccc1)S(=O)(=O)c1cccc(Cl)c1", "inhibition (%)": 87}

Read off the recorded inhibition for Cn1nc(C(C)(C)C)cc1C(=O)N(CC(=O)N[C@H](C#N)Cc1ccccc1)Cc1ccccc1
87

---

# key: entry, value: inhibition
test.target: Cathepsin S (Homo sapiens, UniProt P25774)
Sequence (P25774 115-331 limits assumed): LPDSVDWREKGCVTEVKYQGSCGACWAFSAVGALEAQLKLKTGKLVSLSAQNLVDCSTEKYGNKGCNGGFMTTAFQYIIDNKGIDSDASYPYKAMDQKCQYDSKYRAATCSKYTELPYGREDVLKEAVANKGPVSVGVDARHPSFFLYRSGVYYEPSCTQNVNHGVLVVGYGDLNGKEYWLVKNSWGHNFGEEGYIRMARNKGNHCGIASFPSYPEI
test.details: Inhibition of recombinant human liver CatS at 10 uM using Z-FR-AMC as substrate by fluorescence assay relative to control
# unit: % | format: bare number

Below: 2 compounds and their reported inhibition.
{"structure.as.smiles": "Cn1nc(C(C)(C)C)cc1C(=O)N(CC(=O)N[C@H](C#N)Cc1ccccc1)Cc1ccccc1", "inhibition [%]": 84}
{"structure.as.smiles": "Cn1nc(C(C)(C)C)cc1C(=O)N(CC(=O)NCC#N)Cc1ccccc1", "inhibition [%]": 84}

Read off the recorded inhibition for N#CC1(NC(=O)CN(Cc2ccccc2)C(=O)c2ccc(-c3ccccc3)cc2)CC1
89
